- Tgt: T1, monkey GPC3-His protein (monkey)
- T1 construct: Bought recombinant protein; also called monkey GPC3 protein
- Method description: ELISA, monkey GPC3-His coated;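 further: Plate-coated antigen at 1 µg/mL, antibody binding 2 h at 37 °C, detected with HRP-labeled secondary antibody and TMB, absorbance at 450 nm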
Listed here are binders together with their documented OD450 at 10 nM.
Reply numerically in OD450, unit not repeated.

Below are worked cases with known answers.
- Binder: "F1.120.16 (antibody, human IgG1, kappa, V domains shown, Human-murine chimeric antibody) VH: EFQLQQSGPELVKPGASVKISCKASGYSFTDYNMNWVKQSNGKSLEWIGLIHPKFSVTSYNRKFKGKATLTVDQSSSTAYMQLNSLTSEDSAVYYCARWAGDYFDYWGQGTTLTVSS VL: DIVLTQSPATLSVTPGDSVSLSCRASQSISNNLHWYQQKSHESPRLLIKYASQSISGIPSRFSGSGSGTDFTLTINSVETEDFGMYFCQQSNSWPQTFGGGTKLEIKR"
  Unit symbol: "OD450"
  Value measured: 2.21
- Binder: "F1.92.17 (antibody, human IgG1, kappa, V domains shown, Human-murine chimeric antibody) VH: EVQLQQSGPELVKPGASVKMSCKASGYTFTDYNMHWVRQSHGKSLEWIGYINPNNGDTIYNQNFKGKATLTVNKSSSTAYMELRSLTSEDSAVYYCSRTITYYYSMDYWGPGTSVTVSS VL: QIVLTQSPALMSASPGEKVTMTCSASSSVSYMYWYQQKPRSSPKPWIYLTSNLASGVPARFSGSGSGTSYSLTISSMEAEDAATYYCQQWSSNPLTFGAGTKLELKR"
  Unit symbol: "OD450"
  Value measured: 0.62
- Binder: "F3.38.7 (antibody, human IgG1, kappa, V domains shown, Human-murine chimeric antibody) VH: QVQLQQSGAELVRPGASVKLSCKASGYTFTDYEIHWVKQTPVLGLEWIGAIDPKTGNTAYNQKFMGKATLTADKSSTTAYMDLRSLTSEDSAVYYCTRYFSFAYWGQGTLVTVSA VL: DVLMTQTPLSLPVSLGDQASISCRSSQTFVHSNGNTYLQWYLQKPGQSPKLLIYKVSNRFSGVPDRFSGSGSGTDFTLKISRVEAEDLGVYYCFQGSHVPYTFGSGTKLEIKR"
  Unit symbol: "OD450"
  Value measured: 2.58
- Binder: "F1.73.9 (antibody, human IgG1, kappa, V domains shown, Human-murine chimeric antibody) VH: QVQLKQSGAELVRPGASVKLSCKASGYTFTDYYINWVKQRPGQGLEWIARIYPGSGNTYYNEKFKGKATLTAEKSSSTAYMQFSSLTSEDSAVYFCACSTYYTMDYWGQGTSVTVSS VL: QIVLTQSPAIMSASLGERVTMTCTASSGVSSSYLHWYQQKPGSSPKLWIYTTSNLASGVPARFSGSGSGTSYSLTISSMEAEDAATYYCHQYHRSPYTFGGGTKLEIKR"
  Unit symbol: "OD450"
  Value measured: 1.27

Attention now shifts to the item below.
For the binder shown here, F2.92.1 (antibody, human IgG1, kappa, V domains shown, Human-murine chimeric antibody) VH: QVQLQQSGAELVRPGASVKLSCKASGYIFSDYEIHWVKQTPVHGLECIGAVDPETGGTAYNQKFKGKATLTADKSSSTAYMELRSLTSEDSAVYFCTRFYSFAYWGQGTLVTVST VL: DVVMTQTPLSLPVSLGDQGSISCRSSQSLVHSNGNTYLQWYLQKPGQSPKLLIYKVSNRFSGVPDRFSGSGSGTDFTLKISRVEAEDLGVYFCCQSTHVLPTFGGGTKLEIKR , give the reported OD450 at 10 nM.
2.24
